Source: PubChem BioAssay (NCI)

Entries and their growth values follow.
Tested on: LOX IMVI melanoma
Assay: NCI-60 one-dose screen, 48 h (100 = growth as untreated, 0 = no growth, -100 = all killed)
Details: 10 µM unless noted
This is part of a sample that, as a whole, favours compounds with a hit. Of some 83,000 tested, about 20% had one in any assay.

# compound, growth (%)
rows = [
    ("O=C1NC(=Nc2ccc(Cl)cc2)S/C1=C\\c1cn(-c2ccccc2)nc1-c1ccccc1", 90.5),
    ("CC(C)(C)CC(C)(C)Nc1c(-c2ccncc2)nc2cnccn12", 98.8),
    ("COc1ccc(N2CCN(c3nc(-c4cc(OC)c(OC)c(OC)c4)nc4ccccc34)CC2)cc1", 79.3),
    ("CCCCc1ccc(Nc2ccc(Nc3ccc(CCCC)cc3S(=O)(=O)O)c3c2C(=O)c2ccccc2C3=O)c(S(=O)(=O)O)c1", 86.4),
    ("c1c[nH]c(CNC2CCCCC2)c1", 89.7),
    ("Cc1cc(NCc2cc(Nc3ccnc4cc(Cl)ccc34)ccc2F)nc(N2CCSCC2)n1", -89.2),
    ("N#C/C(=C\\c1ccc(-c2ccccc2F)o1)c1nc(-c2ccco2)cs1", 93.7),
    ("CCn1c(C)nc2cc(C(N)=O)ccc21", 91.6),
    ("O=C(/C=C/c1c(Cl)nc2sccn12)c1ccc(F)c(F)c1", 92),
    ("CC(CN1CCCCC1)C(=O)c1ccccc1 (stereo not given)", 98.3),
]
